All figures here come from patent US20040231558A1.

Experiment: Evaluation of storage stability of ink (40° C. for 3 months, insoluble matter and clogging)
Assay type: physicochemical
Settings: recording liquid stored at 40° C. for 3 months; insoluble matter and clogging
OBSERVED_PROPERTY: (C) storage stability

Some compounds with known (C) storage stability results, for comparison:
- SMI: "N#Cc1c(C(F)(F)F)c(N=Nc2cc(C(=O)O)ccc2C(=O)O)c(O)n(CCNc2nc(NCCn3c(O)c(N=Nc4cc(C(=O)O)ccc4C(=O)O)c(C(F)(F)F)c(C#N)c3=O)nc(NCCn3c(O)c(N=Nc4cc(C(=O)O)ccc4C(=O)O)c(C(F)(F)F)c(C#N)c3=O)n2)c1=O"
  OBSERVED_PROPERTY: "(C) storage stability"
  VALUE: "Δ"
- SMI: "N#Cc1c(C(F)(F)F)c(N=Nc2cc(C(=O)O)ccc2C(=O)O)c(O)n(CCNc2nc(Cl)nc(NCCn3c(O)c(N=Nc4cc(C(=O)O)ccc4C(=O)O)c(C(F)(F)F)c(C#N)c3=O)n2)c1=O"
  OBSERVED_PROPERTY: "(C) storage stability"
  VALUE: "Δ"
- SMI: "Cc1c(N=Nc2cccc(C(=O)O)c2C(=O)O)c(O)n(CS(=O)(=O)O)c(=O)c1C#N"
  OBSERVED_PROPERTY: "(C) storage stability"
  VALUE: "◯"
- SMI: "Cc1c(C(=O)O)ccc(C(=O)O)c1N=Nc1c(O)[nH]c(=O)c(C#N)c1C"
  OBSERVED_PROPERTY: "(C) storage stability"
  VALUE: "◯"
- SMI: "Cc1c(N=Nc2ccccc2C(=O)O)c(O)n(CCNC(=O)c2cc(C(=O)O)c(C(=O)NCCn3c(O)c(N=Nc4ccccc4C(=O)O)c(C)c(C#N)c3=O)cc2C(=O)O)c(=O)c1C#N"
  OBSERVED_PROPERTY: "(C) storage stability"
  VALUE: "Δ"

Continue with the next compound.
Input line: Requested read-out: (C) storage stability. Entry: Cc1c(N=Nc2cc(C(=O)O)ccc2C(=O)O)c(O)n(CCNc2nc(Cl)nc(NCCn3c(O)c(N=Nc4cc(C(=O)O)ccc4C(=O)O)c(C)c(C#N)c3=O)n2)c(=O)c1C#N
Output line: ◯
